System: FBXW7
Experiment: 3' UTR reporter interaction score (median-centred robust z-score of log2 firefly/Renilla activity); higher = less repression of the 3' UTR reporter
Settings: HEK293T; 48 h
Listing of entries alongside the reported 3' UTR reporter interaction score.
Reply briefly: the number, and no unit.

Sure, the documented 3' UTR reporter interaction score for "UACCCUGUAGAACCGAAUUUGU" is -0.174

###

Tested on: PHOX2B
Assay: 3' UTR reporter interaction score (median-centred robust z-score of log2 firefly/Renilla activity); higher = less repression of the 3' UTR reporter
Settings: HEK293T; 48 h
Reported 3' UTR reporter interaction score by item:
Just the number, please.

Below: 5 sequences and their reported 3' UTR reporter interaction score.
Looking up "UACAGUAGUCUGCACAUUGGUU" , I found its 3' UTR reporter interaction score recorded as -0.571

The sequence identified as "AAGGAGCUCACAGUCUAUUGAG" registered its 3' UTR reporter interaction score at 0.65

Record summary for "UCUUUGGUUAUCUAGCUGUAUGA" : reported 3' UTR reporter interaction score = -0.756

3' UTR reporter interaction score in this record for "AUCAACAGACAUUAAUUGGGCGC" : -0.111

// "AAAGUGCUUCCUUUUAGAGGC" : 3' UTR reporter interaction score value = 0.798

Continuing:
The reported 3' UTR reporter interaction score of the sequence "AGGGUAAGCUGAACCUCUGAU" was 1.64

Per the record, "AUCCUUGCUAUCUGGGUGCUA" has 3' UTR reporter interaction score of -0.723

3' UTR reporter interaction score reading for "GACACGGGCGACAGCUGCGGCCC" : -0.471

Sample "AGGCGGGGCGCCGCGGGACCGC" ; 3' UTR reporter interaction score observed: -0.317

Measured 3' UTR reporter interaction score, "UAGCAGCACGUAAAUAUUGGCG" : -0.629

The sequence "UGAAACAUACACGGGAAACCUCUU" showed 3' UTR reporter interaction score equal to -0.468

Lab note: measured 3' UTR reporter interaction score of "AGAGGUAGUAGGUUGCAUAGU" was -0.956

3' UTR reporter interaction score reading for "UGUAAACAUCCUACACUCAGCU" : -0.561

Measured 3' UTR reporter interaction score, "GCGUGCGCCGGCCGGCCGCC" : 0.436
